Where these numbers come from: patent US20200055939A1

Target: T1, huMICB*005 alpha 3-his (human)
T1 construct: whole construct entry: GS, alpha 3 domain, GNS, His8; also called MICB005.His; MICB*005 alpha3 construct
T1 chain: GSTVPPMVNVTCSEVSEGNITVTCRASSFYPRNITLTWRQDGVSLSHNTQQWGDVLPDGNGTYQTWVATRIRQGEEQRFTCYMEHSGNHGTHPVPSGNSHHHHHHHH
Experiment: SPR, Biacore 8K, antibody on Protein A chip
endpoint-name: Kd (nM)
Numeric answer only, unit nM assumed.

{"binder": "15F11v6 (antibody, IgG1, V domains shown, humanized variant of 15F11) VH: EIQLVQSGAEVKKPGSSVKVSCKPSGYAFTSNNIYWVRQAPGQGLEWIGYIDPYIGRIIYNQQFKDRATLTVDKSTSTAYMELSSLRSEDTAVYYCSRSGERSNFDYWGQGTLVTVSS VL: EIVLTQSPATLSLSPGERATLSCSASSSISSNYLHWYQQKPGQSPRLLIYRTSNLASGVPARFSGSGSGTDYTLTISSLEPEDFAVYYCQQGGSLPLTFGQGTKVEIK", "endpoint-name": "Kd", "result-unit": "nM", "recorded-measurement": 6.62}
{"binder": "1D5v23 (antibody, IgG1, V domains shown, humanized variant of 1D5) VH: EIQLVQSGAEVKKPGASVKVSCKASGYAFTSQNIYWVRQAPGQGLEWIGYIEPYNVVPMYNPKFKGRATLTVDTSTSTAYLELSSLRSEDTAVYYCARSGSSNFDYWGQGTLVTVSS VL: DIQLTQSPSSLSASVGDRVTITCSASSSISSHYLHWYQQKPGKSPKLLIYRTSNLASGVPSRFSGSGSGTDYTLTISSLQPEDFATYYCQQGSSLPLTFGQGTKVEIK", "endpoint-name": "Kd", "result-unit": "nM", "recorded-measurement": 1.65}
{"binder": "1D5v10 (antibody, IgG1, V domains shown, humanized variant of 1D5) VH: EVQLVQSGAEVKKPGASVKVSCKASGYAFTSQNIYWVRQAPGQGLEWMGYIEPYNVVPMYNPKFKGRVTMTTDTSTSTAYMELRSLRSDDTAVYYCARSGSSNFDYWGQGTLVTVSS VL: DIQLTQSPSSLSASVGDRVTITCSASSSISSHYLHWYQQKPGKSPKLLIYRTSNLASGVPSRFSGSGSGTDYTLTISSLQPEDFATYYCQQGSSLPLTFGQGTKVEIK", "endpoint-name": "Kd", "result-unit": "nM", "recorded-measurement": 1.98}

Supply reported Kd belonging to this binder: 1D5v7 (antibody, IgG1, V domains shown, humanized variant of 1D5) VH: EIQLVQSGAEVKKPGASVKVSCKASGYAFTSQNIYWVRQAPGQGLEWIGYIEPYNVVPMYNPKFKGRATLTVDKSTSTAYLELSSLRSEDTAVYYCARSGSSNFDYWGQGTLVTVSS VL: EIVLTQSPDFQSVTPKEKVTITCSASSSISSHYLHWYQQKPDQSPKLLIKRTSNLASGVPSRFSGSGSGTDFTLTINSLEAEDAATYYCQQGSSLPLTFGQGTKVEIK
3.31
